# Test target: Human D1 Receptor (Homo sapiens, UniProt P21728)
# Construct: expressed in transfected cells; host or cells: LTK cell line over-expressing the D1 receptor
# Sequence (P21728 whole entry): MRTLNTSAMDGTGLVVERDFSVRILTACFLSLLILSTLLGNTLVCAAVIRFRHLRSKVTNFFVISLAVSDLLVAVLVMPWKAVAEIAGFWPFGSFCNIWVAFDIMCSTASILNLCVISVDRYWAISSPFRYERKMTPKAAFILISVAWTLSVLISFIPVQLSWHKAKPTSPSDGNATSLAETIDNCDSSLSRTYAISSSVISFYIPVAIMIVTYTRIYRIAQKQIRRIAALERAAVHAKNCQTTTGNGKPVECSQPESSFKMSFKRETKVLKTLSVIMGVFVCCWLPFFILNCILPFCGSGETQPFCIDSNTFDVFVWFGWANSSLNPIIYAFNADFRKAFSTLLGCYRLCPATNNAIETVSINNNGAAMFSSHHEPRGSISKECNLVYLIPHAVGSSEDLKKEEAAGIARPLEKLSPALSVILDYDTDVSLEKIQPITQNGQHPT
# Test name: Human D1 Receptor Binding Assay ([3H]-SCH23390 competition binding)
# Condition parameters: over-expressing LTK human cell lines; 0.5 nM [3H]-SCH23390; 30 min at 37° C.; footnote a = geometric mean of ≧5 determinations, footnote b = single determination; read-out: Human D1 Receptor Binding, Ki (nM); Geometric mean of 2-4 determinations (unless otherwise indicated)
Counter-ions that a name gives are not always drawn.
Label Criterion met when Ki < 40 nM; otherwise Criterion not met.

# Compound, Qualitative label
data = [
    ("Cc1ncnc(C)c1-c1ccc(Oc2nccc3ccsc23)cc1Cl", "Criterion met"),
    ("COc1cc(Oc2nccc3ncsc23)ccc1-c1c(C)ncnc1C", "Criterion not met"),
    ("Cc1cc(Oc2nccc3ncsc23)ccc1-c1cn[nH]c(=O)c1C", "Criterion not met"),
    ("Cc1cnnc(C)c1-c1ccc(Oc2nccc3ccsc23)cc1C#N [Example 43, trifluoroacetate salt]", "Criterion not met"),
    ("Cc1cc(Oc2nccc3ccsc23)ccc1-n1c(C)nc2cnccc21", "Criterion met"),
    ("Cc1ncnc(C)c1-c1ccc(Oc2ncnc3ccsc23)cc1C#N", "Criterion not met"),
    ("Cc1ncnc(C)c1-c1cc(F)c(Oc2nccc3ccsc23)c(F)c1", "Criterion not met"),
    ("Cc1cc(Oc2nccc3cnsc23)ccc1-c1c(C)n[nH]c(=O)c1C", "Criterion met"),
]
